Known protein stability index of a selection of variants
B1: ZER1 (parent)
chain: KEMARKVIEHCSNFKEENMDTSR

Variants of: B1
experimentalDetails: protein stability index of a GFP-peptide fusion (GPS, HEK-293T) (PSI 1-6); higher = more stable;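 further: lentivirally expressed fusions sorted by FACS into six bins by GFP to DsRed ratio, PSI derived from sequencing read proportions per bin multiplied by bin number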
testSettings: c terminus: native
quantity: protein stability index

# variantIdentifier, quantity, endpointValue
measured = [
    ("R5S", "protein stability index", 3.81),
    ("K15G", "protein stability index", 3.7),
    ("N13Q", "protein stability index", 3.07),
    ("H10M", "protein stability index", 1.81),
    ("I8T", "protein stability index", 4.4),
    ("N13G", "protein stability index", 3.5),
    ("S22M", "protein stability index", 3.43),
    ("M19R", "protein stability index", 3.62),
    ("D20T", "protein stability index", 2.99),
    ("R23H", "protein stability index", 5.07),
    ("E17L", "protein stability index", 2.35),
]
